target: RyR2 (Rattus norvegicus, UniProt B0LPN4); assay: Steady-state F-DPc10 binding at the Z-line of saponin-permeabilized myocytes (confocal); design: endogenous in cells; host or cells: saponin-permeabilized adult rat ventricular myocytes
Sequence (B0LPN4 whole entry): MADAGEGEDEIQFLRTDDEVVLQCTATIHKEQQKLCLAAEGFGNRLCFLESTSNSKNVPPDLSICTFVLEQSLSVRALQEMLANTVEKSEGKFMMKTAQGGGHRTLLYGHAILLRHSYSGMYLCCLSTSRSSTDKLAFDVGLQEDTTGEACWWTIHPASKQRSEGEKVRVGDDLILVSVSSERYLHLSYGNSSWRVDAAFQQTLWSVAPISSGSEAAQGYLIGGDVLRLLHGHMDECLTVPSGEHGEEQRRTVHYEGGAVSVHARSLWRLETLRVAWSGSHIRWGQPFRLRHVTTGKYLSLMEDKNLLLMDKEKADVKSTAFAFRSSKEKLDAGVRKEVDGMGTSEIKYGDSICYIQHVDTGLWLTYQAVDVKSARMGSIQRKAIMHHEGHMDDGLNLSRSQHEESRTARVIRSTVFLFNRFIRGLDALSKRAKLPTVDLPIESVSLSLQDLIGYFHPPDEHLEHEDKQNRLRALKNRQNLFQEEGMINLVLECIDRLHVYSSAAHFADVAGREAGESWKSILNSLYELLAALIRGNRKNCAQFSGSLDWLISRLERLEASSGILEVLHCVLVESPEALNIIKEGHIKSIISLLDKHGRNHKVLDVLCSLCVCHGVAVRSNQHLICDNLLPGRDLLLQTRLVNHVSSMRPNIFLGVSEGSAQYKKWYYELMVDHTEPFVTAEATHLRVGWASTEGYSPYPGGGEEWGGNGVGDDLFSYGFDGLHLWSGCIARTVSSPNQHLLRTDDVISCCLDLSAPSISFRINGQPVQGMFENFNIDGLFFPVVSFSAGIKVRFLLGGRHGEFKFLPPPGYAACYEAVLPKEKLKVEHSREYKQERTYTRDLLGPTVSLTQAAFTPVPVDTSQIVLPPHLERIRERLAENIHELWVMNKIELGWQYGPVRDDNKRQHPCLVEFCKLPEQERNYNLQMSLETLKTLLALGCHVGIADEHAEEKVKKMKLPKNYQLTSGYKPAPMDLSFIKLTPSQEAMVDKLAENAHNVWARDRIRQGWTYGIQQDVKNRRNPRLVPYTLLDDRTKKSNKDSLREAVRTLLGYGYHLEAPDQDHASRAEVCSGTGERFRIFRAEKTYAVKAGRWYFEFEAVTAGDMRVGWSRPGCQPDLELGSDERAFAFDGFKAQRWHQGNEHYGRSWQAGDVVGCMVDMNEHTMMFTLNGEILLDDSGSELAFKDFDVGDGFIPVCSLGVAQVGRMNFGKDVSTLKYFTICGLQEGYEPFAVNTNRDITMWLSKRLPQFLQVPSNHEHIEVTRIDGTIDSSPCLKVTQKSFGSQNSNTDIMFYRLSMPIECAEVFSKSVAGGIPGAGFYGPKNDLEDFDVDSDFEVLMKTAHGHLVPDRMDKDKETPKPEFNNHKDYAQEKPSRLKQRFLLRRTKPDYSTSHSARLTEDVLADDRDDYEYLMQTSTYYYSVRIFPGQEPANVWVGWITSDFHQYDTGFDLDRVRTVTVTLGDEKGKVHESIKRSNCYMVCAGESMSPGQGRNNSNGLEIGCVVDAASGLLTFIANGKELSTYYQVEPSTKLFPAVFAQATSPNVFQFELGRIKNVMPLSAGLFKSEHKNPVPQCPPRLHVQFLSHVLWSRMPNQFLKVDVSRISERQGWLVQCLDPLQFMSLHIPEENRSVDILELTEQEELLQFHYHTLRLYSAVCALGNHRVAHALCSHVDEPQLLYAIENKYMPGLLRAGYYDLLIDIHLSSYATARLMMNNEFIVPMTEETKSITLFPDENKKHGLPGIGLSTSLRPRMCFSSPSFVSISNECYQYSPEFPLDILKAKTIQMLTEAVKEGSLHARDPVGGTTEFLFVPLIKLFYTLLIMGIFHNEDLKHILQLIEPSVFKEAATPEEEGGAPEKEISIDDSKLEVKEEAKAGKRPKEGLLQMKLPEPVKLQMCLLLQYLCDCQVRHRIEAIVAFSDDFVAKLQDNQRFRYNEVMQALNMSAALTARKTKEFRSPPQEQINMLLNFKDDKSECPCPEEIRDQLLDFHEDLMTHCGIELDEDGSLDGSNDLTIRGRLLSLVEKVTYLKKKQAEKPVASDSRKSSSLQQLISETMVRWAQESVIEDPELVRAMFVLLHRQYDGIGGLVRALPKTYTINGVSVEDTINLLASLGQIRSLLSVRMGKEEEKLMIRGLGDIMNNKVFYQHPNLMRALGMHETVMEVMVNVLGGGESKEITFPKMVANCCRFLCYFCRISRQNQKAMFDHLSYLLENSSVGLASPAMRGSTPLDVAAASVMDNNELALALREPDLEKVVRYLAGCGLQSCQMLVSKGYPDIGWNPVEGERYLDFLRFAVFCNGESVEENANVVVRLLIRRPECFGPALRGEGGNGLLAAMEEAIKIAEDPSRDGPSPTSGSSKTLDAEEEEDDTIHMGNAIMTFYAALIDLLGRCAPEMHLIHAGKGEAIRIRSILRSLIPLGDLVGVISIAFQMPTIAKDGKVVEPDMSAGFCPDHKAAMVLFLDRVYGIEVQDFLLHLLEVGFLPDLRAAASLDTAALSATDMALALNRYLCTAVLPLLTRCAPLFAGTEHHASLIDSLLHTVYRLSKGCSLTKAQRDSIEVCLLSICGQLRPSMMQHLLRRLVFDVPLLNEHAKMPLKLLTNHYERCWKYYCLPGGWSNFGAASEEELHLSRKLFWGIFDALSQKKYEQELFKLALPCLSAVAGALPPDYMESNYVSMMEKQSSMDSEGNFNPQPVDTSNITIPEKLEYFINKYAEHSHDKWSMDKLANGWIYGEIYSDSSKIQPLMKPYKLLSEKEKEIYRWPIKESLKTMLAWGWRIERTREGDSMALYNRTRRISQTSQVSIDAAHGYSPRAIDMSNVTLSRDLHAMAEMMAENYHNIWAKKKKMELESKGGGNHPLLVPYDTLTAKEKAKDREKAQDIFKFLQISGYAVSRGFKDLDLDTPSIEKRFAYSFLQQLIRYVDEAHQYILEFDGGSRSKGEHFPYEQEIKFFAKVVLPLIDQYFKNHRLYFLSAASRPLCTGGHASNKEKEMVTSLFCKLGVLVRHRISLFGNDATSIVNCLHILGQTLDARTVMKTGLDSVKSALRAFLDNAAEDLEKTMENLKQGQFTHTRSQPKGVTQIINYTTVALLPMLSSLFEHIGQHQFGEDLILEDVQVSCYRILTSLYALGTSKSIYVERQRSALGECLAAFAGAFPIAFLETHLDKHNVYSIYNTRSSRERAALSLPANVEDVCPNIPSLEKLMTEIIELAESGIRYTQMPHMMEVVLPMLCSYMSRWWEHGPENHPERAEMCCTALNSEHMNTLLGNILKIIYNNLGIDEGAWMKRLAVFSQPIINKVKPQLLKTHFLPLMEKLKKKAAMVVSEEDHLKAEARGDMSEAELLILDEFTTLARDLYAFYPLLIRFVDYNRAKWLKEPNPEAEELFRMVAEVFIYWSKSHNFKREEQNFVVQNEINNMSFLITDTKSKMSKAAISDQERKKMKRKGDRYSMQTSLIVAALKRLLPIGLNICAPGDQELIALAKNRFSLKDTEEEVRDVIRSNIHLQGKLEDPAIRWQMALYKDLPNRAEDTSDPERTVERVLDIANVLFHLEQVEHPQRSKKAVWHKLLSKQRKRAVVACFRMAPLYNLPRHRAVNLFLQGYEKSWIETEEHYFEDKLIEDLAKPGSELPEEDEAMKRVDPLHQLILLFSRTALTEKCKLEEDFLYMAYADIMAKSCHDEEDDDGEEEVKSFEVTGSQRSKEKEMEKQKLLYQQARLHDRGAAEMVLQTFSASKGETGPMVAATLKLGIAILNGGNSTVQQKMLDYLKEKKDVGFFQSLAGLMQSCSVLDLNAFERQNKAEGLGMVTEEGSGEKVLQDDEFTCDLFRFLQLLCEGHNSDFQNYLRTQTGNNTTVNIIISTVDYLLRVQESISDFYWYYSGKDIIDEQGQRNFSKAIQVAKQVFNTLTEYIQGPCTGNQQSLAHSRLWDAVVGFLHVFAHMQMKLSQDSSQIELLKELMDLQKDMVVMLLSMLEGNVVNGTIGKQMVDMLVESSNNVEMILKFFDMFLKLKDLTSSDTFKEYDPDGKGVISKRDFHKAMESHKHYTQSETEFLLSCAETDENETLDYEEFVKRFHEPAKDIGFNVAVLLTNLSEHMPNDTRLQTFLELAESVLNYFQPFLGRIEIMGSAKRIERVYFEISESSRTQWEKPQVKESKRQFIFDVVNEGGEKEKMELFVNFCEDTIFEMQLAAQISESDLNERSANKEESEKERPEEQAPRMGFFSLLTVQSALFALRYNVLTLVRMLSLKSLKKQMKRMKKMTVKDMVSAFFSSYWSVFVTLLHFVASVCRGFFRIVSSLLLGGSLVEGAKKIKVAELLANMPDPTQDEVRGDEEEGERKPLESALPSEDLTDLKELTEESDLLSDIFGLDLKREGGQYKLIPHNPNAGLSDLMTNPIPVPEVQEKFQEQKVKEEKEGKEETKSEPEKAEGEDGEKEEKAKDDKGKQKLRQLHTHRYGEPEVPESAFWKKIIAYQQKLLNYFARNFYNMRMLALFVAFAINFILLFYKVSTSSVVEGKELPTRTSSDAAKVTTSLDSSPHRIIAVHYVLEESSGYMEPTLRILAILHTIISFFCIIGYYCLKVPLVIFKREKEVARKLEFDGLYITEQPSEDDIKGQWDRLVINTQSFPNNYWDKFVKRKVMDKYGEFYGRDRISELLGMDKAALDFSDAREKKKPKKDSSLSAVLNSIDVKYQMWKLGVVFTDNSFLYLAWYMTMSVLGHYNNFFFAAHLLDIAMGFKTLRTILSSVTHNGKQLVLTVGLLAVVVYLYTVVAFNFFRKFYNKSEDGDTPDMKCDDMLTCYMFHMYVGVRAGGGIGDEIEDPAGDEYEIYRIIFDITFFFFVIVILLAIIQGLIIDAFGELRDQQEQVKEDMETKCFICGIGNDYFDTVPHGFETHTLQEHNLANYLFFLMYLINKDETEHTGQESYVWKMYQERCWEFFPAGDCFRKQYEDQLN
pKd: −log10 of the molar value. Where no end group is shown, it is not given here.
measuredAttribute: pKd

[in] Consider the sequence GFCPDHKAAMVLFLDRVYGIEVQDFLLHLLEVGFLP [DPc10] and give its recorded pKd.
[out] ~6.30

----------
system: RyR; experiment: Pilot FLT-FRET screen of NIH Clinical Collection 1 with D-FKBP and A-CaM near their Kd; type: binding; details: preliminary screen
measuredAttribute: effect on FRET, E(compound)/E(control); hit = outside the 3SD threshold

>  <compound>
NC(=O)c1cccnc1 [Nicotinamide]

>  <dataValue>
hits

$$$$
>  <compound>
Nc1nc(Cl)nc2c1ncn2[C@H]1C[C@H](O)[C@@H](CO)O1

>  <dataValue>
hits

$$$$
>  <compound>
O=C1N(c2ccccc2)c2ccccc2C1(Cc1ccncc1)Cc1ccncc1

>  <dataValue>
hits

$$$$
